studyTarget: human ether-à-go-go-related gene (hERG) potassium channel (human, UniProt Q12809)
Sequence (Q12809 whole entry, looked up): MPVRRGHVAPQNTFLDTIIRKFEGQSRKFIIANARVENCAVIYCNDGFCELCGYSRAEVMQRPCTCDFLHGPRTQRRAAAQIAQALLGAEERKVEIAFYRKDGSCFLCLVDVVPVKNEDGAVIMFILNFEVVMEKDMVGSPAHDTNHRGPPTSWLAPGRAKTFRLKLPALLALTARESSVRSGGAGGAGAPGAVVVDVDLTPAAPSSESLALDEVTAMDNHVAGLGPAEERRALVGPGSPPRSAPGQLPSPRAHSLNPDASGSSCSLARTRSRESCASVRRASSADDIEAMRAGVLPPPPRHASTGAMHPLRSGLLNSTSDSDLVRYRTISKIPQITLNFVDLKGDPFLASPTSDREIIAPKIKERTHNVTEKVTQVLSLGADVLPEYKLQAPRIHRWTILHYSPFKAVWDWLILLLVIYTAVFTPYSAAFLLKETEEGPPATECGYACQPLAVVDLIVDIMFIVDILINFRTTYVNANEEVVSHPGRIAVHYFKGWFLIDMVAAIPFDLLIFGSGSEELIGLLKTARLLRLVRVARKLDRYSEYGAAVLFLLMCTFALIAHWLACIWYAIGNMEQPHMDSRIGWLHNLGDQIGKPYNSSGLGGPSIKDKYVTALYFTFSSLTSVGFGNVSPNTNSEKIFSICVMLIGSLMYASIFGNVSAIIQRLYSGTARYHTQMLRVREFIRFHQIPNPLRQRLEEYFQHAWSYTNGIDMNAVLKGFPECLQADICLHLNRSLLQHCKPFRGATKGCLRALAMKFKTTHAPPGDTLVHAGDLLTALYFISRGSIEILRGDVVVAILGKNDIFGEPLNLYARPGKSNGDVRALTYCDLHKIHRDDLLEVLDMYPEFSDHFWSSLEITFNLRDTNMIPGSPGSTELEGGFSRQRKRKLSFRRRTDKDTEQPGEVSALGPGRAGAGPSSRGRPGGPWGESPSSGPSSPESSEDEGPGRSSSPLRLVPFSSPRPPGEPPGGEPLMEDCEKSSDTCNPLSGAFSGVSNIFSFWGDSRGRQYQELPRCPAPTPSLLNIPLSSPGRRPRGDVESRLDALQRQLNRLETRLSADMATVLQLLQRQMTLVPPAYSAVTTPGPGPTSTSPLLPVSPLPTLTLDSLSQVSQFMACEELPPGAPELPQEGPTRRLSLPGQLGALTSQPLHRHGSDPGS
protocolDescription: primary screen, population patch clamp on CHO cells stably expressing hERG; higher = less effect of the substance
About 14,000 (4.5%) of roughly 310,000 compounds showed an effect of 50% or more. Effects have a minus sign here. Many of the other results were omitted from the sample, so strong results are more common in it than they were.
measuredMetric: hERG current change (%, negative = inhibition) at 10uM (%)
Report the value in % with no unit label.

[Q] State measured hERG current change (%, negative = inhibition) at 10uM of the compound `CC(C)Cn1c(N)c(C(=O)COC(=O)CCNS(=O)(=O)c2ccccc2)c(=O)n(C)c1=O` with human ether-à-go-go-related gene (hERG) potassium channel (human, UniProt Q12809).
[A] -48.4

[Q] Name the value of hERG current change (%, negative = inhibition) at 10uM reported for OCCOCCn1c(C(CO)Nc2nc(-c3ccc(F)cc3)cs2)nc2ccccc21 (stereo not shown) when tested on human ether-à-go-go-related gene (hERG) potassium channel (human, UniProt Q12809).
[A] -29.4

[Q] GET hERG current change (%, negative = inhibition) at 10uM where system = human ether-à-go-go-related gene (hERG) potassium channel (human, UniProt Q12809) and item = `Cc1cc(C)cc(OCC(=O)OCC(=O)c2c(N)n(C)c(=O)n(C)c2=O)c1`;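 note: peak tail current of the secondary pulse compared with the same well before compound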
[A] -5.06

[Q] Give measured hERG current change (%, negative = inhibition) at 10uM for COc1ccc(C(c2nnnn2C2CCCC2)N2CCN(C3CCCC3)CC2)cc1OC.Cl (stereo not shown) (human ether-à-go-go-related gene (hERG) potassium channel (human, UniProt Q12809)).
[A] -22.7

[Q] Report the value of hERG current change (%, negative = inhibition) at 10uM obtained on human ether-à-go-go-related gene (hERG) potassium channel (human, UniProt Q12809) for COc1ccccc1C(=O)NC(C)c1ccc(-n2ccnc2)cc1 (stereo not shown) .
[A] -52.6

[Q] Enter recorded hERG current change (%, negative = inhibition) at 10uM with human ether-à-go-go-related gene (hERG) potassium channel (human, UniProt Q12809) for `COc1ccccc1C(=O)NCC(=O)Nc1cccnc1` here.
[A] 20.5

[Q] Look up and report hERG current change (%, negative = inhibition) at 10uM, with human ether-à-go-go-related gene (hERG) potassium channel (human, UniProt Q12809) as system, for `Cc1ccc(C)c(NS(=O)(=O)c2cc(C(=O)N3CCc4ccccc4C3)ccc2Cl)c1`
[A] 8.24

[Q] Output reported hERG current change (%, negative = inhibition) at 10uM of the compound `O=C(c1cc([N+](=O)[O-])cc([N+](=O)[O-])c1)N1CCN(Cc2ccc3c(c2)OCO3)CC1` on human ether-à-go-go-related gene (hERG) potassium channel (human, UniProt Q12809).
[A] -58.2

[Q] // fetch hERG current change (%, negative = inhibition) at 10uM; item: COc1ccc(C(c2nnnn2CCc2ccccc2)N2CCN(C3CCCC3)CC2)cc1OC.Cl (stereo not shown) ; system: human ether-à-go-go-related gene (hERG) potassium channel (human, UniProt Q12809);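 note: peak tail current of the secondary pulse compared with the same well before compound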
[A] -64.3

[Q] Give hERG current change (%, negative = inhibition) at 10uM for this entry on human ether-à-go-go-related gene (hERG) potassium channel (human, UniProt Q12809): `O=C(c1cccc([N+](=O)[O-])c1)N1CCN(Cc2ccc3c(c2)OCO3)CC1`
[A] -44.3

[Q] Fetch value of hERG current change (%, negative = inhibition) at 10uM on human ether-à-go-go-related gene (hERG) potassium channel (human, UniProt Q12809) for `O=CN1CC(=O)N(c2ccccc2)c2c([nH]c3ccccc23)C1` .
[A] -23.2

[Q] Output reported hERG current change (%, negative = inhibition) at 10uM of the compound O=C(c1ccccc1)N1CCC(CC2CC(c3ccc(Cl)cc3)=NO2)(C(=O)NCC2CCCCC2)CC1 (stereo not shown) on human ether-à-go-go-related gene (hERG) potassium channel (human, UniProt Q12809).
[A] -52

[Q] State hERG current change (%, negative = inhibition) at 10uM (human ether-à-go-go-related gene (hERG) potassium channel (human, UniProt Q12809)) of O=C(CCCCCBr)N1CCC(CC2CC(c3ccc(Cl)cc3)=NO2)(C(=O)NCC2CCCCC2)CC1 (stereo not shown) .
[A] -74.6

[Q] Quote hERG current change (%, negative = inhibition) at 10uM with test system human ether-à-go-go-related gene (hERG) potassium channel (human, UniProt Q12809) for N#Cc1cccc(C(c2nnnn2CCc2ccccc2)N2CCN(C3CCCCC3)CC2)c1 (stereo not shown);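 note: peak tail current of the secondary pulse compared with the same well before compound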
[A] -61

[Q] Supply hERG current change (%, negative = inhibition) at 10uM measured with human ether-à-go-go-related gene (hERG) potassium channel (human, UniProt Q12809) for CC12CCC(=O)N1C(C(=O)Nc1cccc3ccccc13)CS2 (stereo not shown) .
[A] 4.6

[Q] Fetch value of hERG current change (%, negative = inhibition) at 10uM on human ether-à-go-go-related gene (hERG) potassium channel (human, UniProt Q12809) for O=C(C1CCCC1)N1CCC(CC2CC(c3cccc(Br)c3)=NO2)(C(=O)NCC2CCCCC2)CC1 (stereo not shown) .
[A] -49.9

[Q] Please look at `CCOc1ccc(OCCC(=O)OCC(=O)c2c(N)n(C)c(=O)n(C)c2=O)cc1` and tell me its recorded hERG current change (%, negative = inhibition) at 10uM on human ether-à-go-go-related gene (hERG) potassium channel (human, UniProt Q12809).
[A] -23

[Q] Please report hERG current change (%, negative = inhibition) at 10uM with human ether-à-go-go-related gene (hERG) potassium channel (human, UniProt Q12809) for item CC1(C(=O)N2CCC(CC3CC(c4ccc(Cl)cc4)=NO3)(C(=O)NCC3CCCCC3)CC2)CC1 (stereo not shown) .
[A] -40.8

[Q] Specify hERG current change (%, negative = inhibition) at 10uM for COCCn1nnnc1C(c1cccc(C#N)c1)N1CCCCCC1.Cl (stereo not shown) , system human ether-à-go-go-related gene (hERG) potassium channel (human, UniProt Q12809).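 Note: peak tail current of the secondary pulse compared with the same well before compound.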
[A] -56.6
